# Test system: SK-OV-3 (ovarian cancer) cells
# PROTOCOL: MTT cell growth inhibition, solid tumor cells
# Type: cell-based, human
# STUDY CONDITIONS: Homo sapiens; SK-OV-3, 72 h, MTT; read-out: IC50
ENDPOINT: IC50 (µg/mL)

COMPOUND	STUDY TARGET	READOUT UNIT	DATA VALUE
COc1ccc2cc1Oc1ccc(cc1)C[C@H]1c3cc(c(OC)cc3CCN1C)Oc1c(OS(=O)(=O)c3ccc(C)cc3)c(OC)cc3c1[C@H](C2)N(C)CC3	SK-OV-3 (ovarian cancer) cells	µg/mL	1.92
COc1ccc2cc1Oc1ccc(cc1)C[C@H]1c3cc(c(OC)cc3CCN1C)Oc1c(OCC(O)CN3CCCCC3)c(OC)cc3c1[C@H](C2)N(C)CC3 (stereo partly drawn)	SK-OV-3 (ovarian cancer) cells	µg/mL	1.03
COc1ccc2cc1Oc1ccc(cc1)C[C@H]1c3cc(c(OC)cc3CCN1C)Oc1c(OC(=O)C3CC3)c(OC)cc3c1[C@H](C2)N(C)CC3	SK-OV-3 (ovarian cancer) cells	µg/mL	6.45
C=C(C)COc1c(OC)cc2c3c1Oc1cc4c(cc1OC)CCN(C)[C@H]4Cc1ccc(cc1)Oc1cc(ccc1OC)C[C@@H]3N(C)CC2	SK-OV-3 (ovarian cancer) cells	µg/mL	2.38
COc1ccc2cc1Oc1ccc(cc1)C[C@H]1c3cc(c(OC)cc3CCN1C)Oc1c(OCC(O)CN3CCCC(C)C3)c(OC)cc3c1[C@H](C2)N(C)CC3 (stereo partly drawn)	SK-OV-3 (ovarian cancer) cells	µg/mL	1.39

P: C=CCN(C)CC(O)COc1c(OC)cc2c3c1Oc1cc4c(cc1OC)CCN(C)[C@H]4Cc1ccc(cc1)Oc1cc(ccc1OC)C[C@@H]3N(C)CC2 (stereo partly drawn)
Q: C=CCOc1c(OC)cc2c3c1Oc1cc4c(cc1OC)CCN(C)[C@H]4Cc1ccc(cc1)Oc1cc(ccc1OC)C[C@@H]3N(C)CC2
R: COc1ccc2cc1Oc1ccc(cc1)C[C@H]1c3cc(c(OC)cc3CCN1C)Oc1c(OS(=O)(=O)c3ccccc3)c(OC)cc3c1[C@H](C2)N(C)CC3
Q. Ordering: ascending IC50. Present the labels in the sequence the task asks for.
A. R, P, Q

Data origin, for the record: patent US9328122B2
